Biological target: PPARδ (Homo sapiens)
Sequence (Q03181 211-439 limits assumed, species assumed): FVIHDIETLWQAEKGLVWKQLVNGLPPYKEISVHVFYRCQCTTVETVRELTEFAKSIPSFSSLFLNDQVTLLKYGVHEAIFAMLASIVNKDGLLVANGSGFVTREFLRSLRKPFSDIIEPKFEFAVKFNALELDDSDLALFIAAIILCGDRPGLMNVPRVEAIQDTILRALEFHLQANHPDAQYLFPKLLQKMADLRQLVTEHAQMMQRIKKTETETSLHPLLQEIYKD
Assay: Transfection assay, GAL4-PPARδ LBD luciferase reporter in HEK293 cells
Details: 18-24 hrs
pEC50: −log10 of the molar value.
Parameter measured: pEC50

[1] O=C(O)C1(Oc2ccc3c(c2)CCN(Cc2ccc(-c4ccc(C(F)(F)F)cc4)s2)CC3)CC1
[2] O=C(O)COc1ccc2c(c1)CCN(Cc1csc(-c3ccc(C(F)(F)F)cc3)n1)CC2
Ask: Between item 1 and item 2 , which reported pEC50 is smaller? Indicate which entry you chose by stating its label.
Reply: 2

* * *

Test: Rat study: drug plasma levels (pharmacokinetics)
Format: in vivo
Settings: Sprague Dawley, plasma, 3 mg/kg, Dose 3, Single, n = 2
Parameter measured: Cmax (ng/mL)
Give just the number in ng/mL; leave the unit off.

Ask: State its Cmax: O=C(O)COc1ccc2c(c1)CCN(Cc1ccc(-c3ccc(C(F)(F)F)cc3)s1)CC2
Reply: 733
